Every entry's value here was drawn from BindingDB's records for doi:10.1021/jm000130i.

- EXPERIMENTAL_TARGET: Dihydrofolate reductase (Lacticaseibacillus casei, UniProt P00381)
- Sequence (P00381 whole entry): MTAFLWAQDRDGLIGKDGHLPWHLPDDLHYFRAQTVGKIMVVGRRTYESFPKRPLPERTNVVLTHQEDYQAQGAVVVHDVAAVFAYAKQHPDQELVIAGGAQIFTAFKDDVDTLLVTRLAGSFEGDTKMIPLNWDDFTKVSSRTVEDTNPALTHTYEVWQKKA
MEASURED_QUANTITY: IC50 (µM)

MOLECULE_SMILES	EXPERIMENTAL_TARGET	NUMBER
C/C(=C\c1coc2nc(N)nc(N)c12)c1ccc(C(=O)N[C@@H](CCC(=O)O)C(=O)O)cc1	Dihydrofolate reductase (Lacticaseibacillus casei, UniProt P00381)	4.4
